Listing of recorded viability at 28.5 h, 10 µM by entry.
# test.summary: in vitro
# condition.label: human, hela cells, % viability
Your answer is read as %, so omit the unit and give the number.

| molecule | quantitative.readout |
| --- | --- |
| CC(=O)Nc1ccc2c(c1)CCC(C)C2=O (stereo not drawn) | 78.4 |
| CCCCCNC(=O)N1CCN(CCCC(c2ccc(F)cc2)c2ccc(F)cc2)CC1 [CBK024917C] | 103 |
| Cc1cccc(OCC(=O)Nc2ncn(Cc3cccnc3)n2)c1 | 95.9 |

Name the recorded viability at 28.5 h, 10 µM of the item CCOc1ccc2[nH]c(C(=O)NC3CCCOC3)c(C)c2c1 (stereo not drawn) in your answer.
113
